PBM binding z-score values for the sequences below.
Test system: PPARg:RXRa IVT, anti-PPARg (NR concentration 270 nM, RXRa partner concentration 90 nM)
Assay: PBM binding z-score (relative to random genomic background probes); higher = stronger binding; sequences stand for … in GC…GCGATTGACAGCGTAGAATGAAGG
Give the value as a plain number.

Solved cases (3 shown):
CAAACTAGGTCACCGGAAAGTCAAAGTCCGCATG	9.33
CCGAGTAGGTTACGAGGGTGCATTCAGTGCGAAT	3.87
ACTAGCAGGCCAAGGGTGACTCAAGATTAGTCCG	1.84

Request: Report PBM binding z-score for ATCTCTAGGTAAAGTTCATTGAAAGATCGATAGA please.
Response: 2.83

Request: Report PBM binding z-score for CCTAGTTGGTCAGGTGGTCACACACCGGATATGA please.
Response: 0.926

Request: Report PBM binding z-score for ATCGAAAAGTCGAAGGTGAGTATACCCACCCGAA please.
Response: 0.2

Request: Report PBM binding z-score for TTACCAAGGTGAAGGTCGTGGATCCCTCTGTAGA please.
Response: 3.55

Request: Report PBM binding z-score for AGTCAAAATTCACTAGGTAACGTAAGATTCAGCT please.
Response: 2.58

Request: Report PBM binding z-score for CCGAGTAGGTTACGAGGGGGCATTCGGTGCGAAT please.
Response: 4.36

Request: Report PBM binding z-score for AGAATGAGGTTAGCAAAGATCAGGGAAACGCTTG please.
Response: 1.55

Request: Report PBM binding z-score for TAGCCTAGGACATGCGGGCCAGTATAGTGTCGGC please.
Response: -0.448

Request: Report PBM binding z-score for CTCGAAAGGTCGTCCTCAGGTGAGTATACCAAAC please.
Response: 1.77

Request: Report PBM binding z-score for ATATGTGGGTTAGGGTCATTCAGAAAGTAGGGAA please.
Response: 6.44

Request: Report PBM binding z-score for CCTGCTAGGTCTATGGTCAGCTAAAGCAGCTCGC please.
Response: -0.225

Request: Report PBM binding z-score for ACTAGTTGGTCAGCTGAGGTCACACTCAATTCGG please.
Response: 2.58

Request: Report PBM binding z-score for TATTGTAGATCAAAGGTTAAGAAAGCCGAAGCCT please.
Response: 4.2

Request: Report PBM binding z-score for TCGAGTAGGTTACGGGGGCATTAAGGGATGAAGA please.
Response: 6.1

Request: Report PBM binding z-score for CTAGGTAGGTTAAGGGGGTCATTCAGTTTGAAAG please.
Response: 5.61

Request: Report PBM binding z-score for CCGATTAGGTTACGAGGGGGCATTCAGTGCGAAT please.
Response: 3.4

Request: Report PBM binding z-score for ATACCAAGGTTATCGTGAGGTCGTTGATACTAAC please.
Response: 1.31

Request: Report PBM binding z-score for CCTGCTAGTTCAATGGTCAGCTAAAGCAGCTCGC please.
Response: -0.344
